Reference for the values: patent US20150105252A1

# Morningglory plant response rating values compiled below
- Tested on: morningglory
- Procedure details: Test A postemergence
- Assay type: in vivo, Ipomoea spp.
- Experimental context: Postemergence, 500 g ai/ha; 0 to 100 scale (0 no effect, 100 complete control)
Quantity measured: Morningglory plant response rating

1. CCCNC(=O)c1cc(CC)n(Oc2cccc(OC(F)(F)F)c2)n1    70
2. CCc1cc(C(=O)NC(C)C)nn1Cc1ccnc(OCC(F)(F)F)c1    100
3. CCNC(=O)c1cc(CC)n(Cc2cc(C(F)(F)F)nn2C)n1    100
4. COCc1cc(C(=O)NCC(F)(F)F)nn1Cc1cc(C(F)(F)C(F)(F)F)nn1C    60
5. O=C(NC1CC1)c1cc(I)n(Cc2cccc(C(F)(F)F)c2)n1    80
6. O=C(NCC(F)(F)F)c1cc(Br)n(Cc2cccc(C(F)(F)F)c2)n1    50
7. O=C(NCC(F)(F)F)c1cc(CCF)n(Cc2ccnc(C(F)(F)F)c2)n1    90
8. CCCc1cc(C(=O)NC(C)C)nn1Cc1cc(C(F)(F)F)nn1C    100
9. CCCNC(=O)c1cc(CCF)n(Cc2ccnc(C(F)(F)F)c2)n1    100
10. CCOc1cc(C(=O)NCC(F)(F)F)nn1Cc1cc(C(F)(F)F)nn1C    90
11. CCONC(=O)c1cc(CC)n(Cc2ccnc(OC(F)F)c2)n1    100
12. CCc1cc(C(=O)NCC(F)(F)F)nn1Oc1cccc(C(F)(F)F)c1    100
13. CCc1cc(C(=O)NC)nn1Cc1ccnc(C(F)(F)F)c1    90
14. CCCNC(=O)c1cc(OCC)n(Cc2ccnc(C(F)(F)F)c2)n1    100
15. CCc1cc(C(=O)NC(C)C)nn1Cc1cc(C(F)(F)F)nn1CC    100
16. CCc1cc(C(=O)NCC(F)(F)F)nn1Cc1ccnc(Br)c1    100
17. CCc1cc(C(=O)NCC#N)nn1Cc1ccnc(C(F)(F)F)c1    70
